# experimentalProtocol: self-splicing fitness, log relative to wild type (ln ratio); higher = more splicing; Tetrahymena group I intron in knt gene, E. coli kanamycin selection, DiMSum; sequences stand for … in CUCUCU…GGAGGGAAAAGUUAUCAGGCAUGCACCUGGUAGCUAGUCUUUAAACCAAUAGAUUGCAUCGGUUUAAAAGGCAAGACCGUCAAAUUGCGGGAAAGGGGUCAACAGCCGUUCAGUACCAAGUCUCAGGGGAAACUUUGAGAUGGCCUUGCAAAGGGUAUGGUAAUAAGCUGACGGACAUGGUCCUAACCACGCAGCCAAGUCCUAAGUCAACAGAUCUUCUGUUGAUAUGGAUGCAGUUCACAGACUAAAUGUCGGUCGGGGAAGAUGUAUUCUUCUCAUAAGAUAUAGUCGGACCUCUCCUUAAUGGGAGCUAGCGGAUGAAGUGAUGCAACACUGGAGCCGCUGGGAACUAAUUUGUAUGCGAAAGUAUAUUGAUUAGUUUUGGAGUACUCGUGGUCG;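 further: selection with 25 µg/mL kanamycin versus none on LB agar overnight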
# protocolConditions: 30 °C

querySequence	self-splicing fitness (ln)
UCAAAGCAAUAUUACGGGCG	-0.842
GGGCAGCAAUAUUACGUCCA	-1.17
GUGAAGCAAUAUUACGUCCG	-0.484
GCGCAGCAAUAUUACGCACU	-1.97
UGAAAGCAAUAUUACGCACC	-0.796
UUAGAGCAAUAUUACGAUGU	-2.59
CUACAGCAAUAUUACGCUCC	-3.45
GGCUAGCAAUAUUACGUAUC	-0.368
CGCAAGCAAUAUUACGCCGG	-0.626
UUCAAGCAAUAUUACGGGAG	-1.78
UGAUAGCAAUAUUACGUACU	0.125
AAUUAGCAAUAUUACGGGAU	-2.28
UAGCAGCAAUAUUACGAUGU	-3.82
AAUGAGCAAUAUUACGGGAG	-2.87
GGGAAGCAAUAUUACGGUAA	-3.01
GAUUAGCAAUAUUACGCAAG	-2.11
AGCAAGCAAUAUUACGAUAU	-2.16
UGCUAGCAAUAUUACGCCAU	-3.15
ACUCAGCAAUAUUACGGAGG	-2.28
UUACAGCAAUAUUACGCGAC	-2.37
UGGUAGCAAUAUUACGUUAA	-3.27
GUUAAGCAAUAUUACGAUAU	-1.02
AAUGAGCAAUAUUACGUUGC	-4.6
GCAUAGCAAUAUUACGCUAA	-2.72
GGGGAGCAAUAUUACGUGGG	-2.75
AACGAGCAAUAUUACGUAGU	-3.97
GCCCAGCAAUAUUACGCUUU	0.177
CAAAAGCAAUAUUACGCGGC	-2.85
CAGAAGCAAUAUUACGGUCG	-0.112
AGGAAGCAAUAUUACGUGUU	-3.8
GCAAAGCAAUAUUACGAGAG	-2.7
UAUUAGCAAUAUUACGUACA	-0.773
UGCGAGCAAUAUUACGGGAA	-3.87
UCGUAGCAAUAUUACGUAGG	-2.71
UUGAAGCAAUAUUACGUACU	-0.493
CCUGAGCAAUAUUACGGACA	-3.69
CGAUAGCAAUAUUACGGAGU	-2.09
UGCAAGCAAUAUUACGUGUC	-1.55
UAUCAGCAAUAUUACGGUCA	-0.435
AAGCAGCAAUAUUACGUAGA	-2.7
AACAAGCAAUAUUACGUGUC	-4.91
AUGCAGCAAUAUUACGCUUU	-2.72
UGUAAGCAAUAUUACGAAUU	-2.57
AGCUAGCAAUAUUACGAUCU	0.121
GCCCAGCAAUAUUACGGUCA	-0.8
UCUUAGCAAUAUUACGUUAU	-3.27
AGCGAGCAAUAUUACGUAUU	-3.54
AUAGAGCAAUAUUACGGUCU	-1.2
ACAGAGCAAUAUUACGAAAG	-3.24
ACGAAGCAAUAUUACGCCUC	-2.93
CCCUAGCAAUAUUACGAUCG	-3.91
UCCUAGCAAUAUUACGCGGA	-3.3
CUUUAGCAAUAUUACGCUUA	-3.33
GAUUAGCAAUAUUACGGUCU	-3.15
ACGUAGCAAUAUUACGGGUG	-2.67
AUGUAGCAAUAUUACGGUAA	-2.15
CCGGAGCAAUAUUACGCCUG	-2.36
AGUCAGCAAUAUUACGUGCG	-0.277
GUUAAGCAAUAUUACGGUAG	-2.87
UGGAAGCAAUAUUACGUAUC	-3.27
UCUAAGCAAUAUUACGUCUA	-2.51
CCGUAGCAAUAUUACGCGGG	-4.02
CACGAGCAAUAUUACGCUCA	-2.85
GGUCAGCAAUAUUACGUCUA	-0.0881
ACUUAGCAAUAUUACGGCGA	-1.21
UUGGAGCAAUAUUACGGGAA	-3.64
GCGCAGCAAUAUUACGACAU	-0.277

====

Listing of recorded self-splicing fitness (ln) by entry.
# experimentalProtocol: self-splicing fitness, log relative to wild type (ln ratio); higher = more splicing; Tetrahymena group I intron in knt gene, E. coli kanamycin selection, DiMSum; sequences stand for … in CUCUCU…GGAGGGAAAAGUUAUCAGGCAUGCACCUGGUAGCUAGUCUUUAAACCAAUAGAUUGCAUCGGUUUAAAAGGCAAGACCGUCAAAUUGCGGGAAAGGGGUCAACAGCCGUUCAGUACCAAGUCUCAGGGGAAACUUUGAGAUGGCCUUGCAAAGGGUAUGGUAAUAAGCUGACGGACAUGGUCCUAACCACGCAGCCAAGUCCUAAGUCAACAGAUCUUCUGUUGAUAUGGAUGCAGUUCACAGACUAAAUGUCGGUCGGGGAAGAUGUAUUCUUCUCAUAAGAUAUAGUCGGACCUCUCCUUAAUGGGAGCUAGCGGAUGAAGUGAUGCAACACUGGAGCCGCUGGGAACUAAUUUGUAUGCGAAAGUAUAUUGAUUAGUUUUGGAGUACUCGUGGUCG
# protocolConditions: 37 °C
measuredEndpoint: self-splicing fitness (ln)

querySequence	measuredEndpoint	valueObserved
CGUCAGCAAUAUUACGCUCG	self-splicing fitness (ln)	-1.63
ACUCAGCAAUAUUACGACGC	self-splicing fitness (ln)	0.447
CAGGAGCAAUAUUACGUACA	self-splicing fitness (ln)	-1.73
UGGCAGCAAUAUUACGACGC	self-splicing fitness (ln)	-1.72
CCUUAGCAAUAUUACGACAG	self-splicing fitness (ln)	-0.864
CUUUAGCAAUAUUACGGGGC	self-splicing fitness (ln)	-2.54
UAUAAGCAAUAUUACGCAGU	self-splicing fitness (ln)	-1.68
GAGUAGCAAUAUUACGCGAA	self-splicing fitness (ln)	-0.658

====

# experimentalProtocol: self-splicing fitness, log relative to wild type (ln ratio); higher = more splicing; Tetrahymena group I intron in knt gene, E. coli kanamycin selection, DiMSum; sequences stand for … in CUCUCU…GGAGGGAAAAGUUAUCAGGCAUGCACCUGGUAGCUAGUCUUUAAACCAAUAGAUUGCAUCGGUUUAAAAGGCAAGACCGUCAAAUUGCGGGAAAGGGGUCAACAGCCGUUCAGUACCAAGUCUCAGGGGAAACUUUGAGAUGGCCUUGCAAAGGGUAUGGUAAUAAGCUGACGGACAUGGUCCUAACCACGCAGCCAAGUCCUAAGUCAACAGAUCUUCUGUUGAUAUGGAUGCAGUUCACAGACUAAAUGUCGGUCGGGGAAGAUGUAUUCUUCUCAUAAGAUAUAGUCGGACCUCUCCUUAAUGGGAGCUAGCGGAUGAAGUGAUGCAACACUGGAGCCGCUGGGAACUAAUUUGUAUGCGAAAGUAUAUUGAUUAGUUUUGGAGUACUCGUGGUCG
# protocolConditions: 30 °C
// map self-splicing fitness (ln) to label using small value: < -3; mid value: ≥ -3 and < -1; large value: ≥ -1

querySequence	categoryLabel
UUACAGCAAUAUUACGGUAC	small value
CUAAAGCAAUAUUACGCCGG	large value
UCGUAGCAAUAUUACGCCCA	large value
CCUGAGCAAUAUUACGGCGG	mid value
GGAAAGCAAUAUUACGUAAA	mid value
GGGUAGCAAUAUUACGACAU	large value
CGCCAGCAAUAUUACGUGCC	mid value
CCCUAGCAAUAUUACGUUCC	mid value
ACGAAGCAAUAUUACGACGA	mid value
UCACAGCAAUAUUACGAAAG	small value
ACGAAGCAAUAUUACGGCCG	large value
UCGGAGCAAUAUUACGAAUA	mid value
AGUCAGCAAUAUUACGCUAC	small value
GCAAAGCAAUAUUACGAUGC	small value
CAUAAGCAAUAUUACGUGAU	small value
AGCGAGCAAUAUUACGUUAC	small value
CAGAAGCAAUAUUACGCGCG	large value
AGAAAGCAAUAUUACGCACG	large value
GGAGAGCAAUAUUACGGCCU	mid value
GGCGAGCAAUAUUACGAAGG	small value
CCAAAGCAAUAUUACGAGCG	large value
CGAUAGCAAUAUUACGAACU	large value
AUAAAGCAAUAUUACGGUUA	large value
GGUUAGCAAUAUUACGCUCU	mid value
UUCAAGCAAUAUUACGCGAU	mid value
CGACAGCAAUAUUACGUCGC	small value
GACUAGCAAUAUUACGCAUA	large value
GUCGAGCAAUAUUACGUCCG	small value
UCAAAGCAAUAUUACGAGAC	small value
AUAAAGCAAUAUUACGAUGC	mid value
CACUAGCAAUAUUACGUAGC	small value
UACCAGCAAUAUUACGGCCG	large value
CCCCAGCAAUAUUACGGGCC	small value
CCCCAGCAAUAUUACGUCAA	small value
AACCAGCAAUAUUACGCUUA	large value
GGUCAGCAAUAUUACGCUGC	mid value
ACGAAGCAAUAUUACGUAAC	small value
UCGAAGCAAUAUUACGGUCC	small value
CACGAGCAAUAUUACGGAAG	small value
GCUCAGCAAUAUUACGGCGC	mid value
CUCCAGCAAUAUUACGCGUU	small value
CACAAGCAAUAUUACGUCCC	mid value
UUGGAGCAAUAUUACGACAA	mid value
ACUCAGCAAUAUUACGCACU	large value
GGAUAGCAAUAUUACGUUCG	mid value
AUCCAGCAAUAUUACGUCCC	large value
UACGAGCAAUAUUACGUACU	small value
CUGGAGCAAUAUUACGUCAC	mid value
GGUGAGCAAUAUUACGCUGC	small value
UUCCAGCAAUAUUACGUGGU	small value
GUAAAGCAAUAUUACGUAAG	mid value
UUCCAGCAAUAUUACGGACA	large value
GCGUAGCAAUAUUACGGGUA	mid value
GCAAAGCAAUAUUACGGCAU	large value
AGAGAGCAAUAUUACGUAAG	small value
UUACAGCAAUAUUACGGCCC	large value
CUGGAGCAAUAUUACGAAGU	mid value
CUUGAGCAAUAUUACGGACA	mid value
